# Target Under Test: Serum amyloid P-component (Homo sapiens) (UniProt P02743)
# Sequence (P02743 whole entry): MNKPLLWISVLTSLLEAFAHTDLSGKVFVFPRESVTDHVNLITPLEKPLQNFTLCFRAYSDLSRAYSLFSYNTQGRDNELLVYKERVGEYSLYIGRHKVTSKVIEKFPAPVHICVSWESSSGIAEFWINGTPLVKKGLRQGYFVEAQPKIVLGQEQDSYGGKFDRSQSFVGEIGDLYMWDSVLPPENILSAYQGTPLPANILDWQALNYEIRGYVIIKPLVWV
# Assay: Inhibition of calcium dependent [125I]serum amyloid P-component (unknown origin) binding to immobilized chicken erythrocyte native long chromatin at 2 mM incubated for 2 hrs by gamma counting relative to control
Would you mind labelling by inhibition? At or over 90% is t, under is f.

Could you verify whether the entry `O=C(O)[C@H]1CCCN1C(=O)Cc1cccc(CC(=O)N2CCC[C@@H]2C(=O)O)c1` shows inhibition of no less than 90%?
t

What do we get for `COc1cccc(OCC(=O)N2CCC[C@@H]2C(=O)O)c1OCC(=O)N1CCC[C@@H]1C(=O)O` ?
t

Could you do the same for `O=C(O)[C@H]1CCCN1C(=O)COc1cccc2c(OCC(=O)N3CCC[C@@H]3C(=O)O)cccc12` , please?
t

One more molecule: `C[N+](C)(C)CCOP(=O)([O-])O`
f

Same lookup for `NCCOP(=O)(O)O` , please.
t

###

So I've got a bunch of compounds here, and I need their inhibition values.
# Target Under Test: Serum amyloid P-component (Homo sapiens) (UniProt P02743)
# Assay: Inhibition of calcium dependent [125I]serum amyloid P-component (unknown origin) binding to immobilized influenza virus A/Shanghai/24/90 at 2 mM incubated for 2 hrs by fluorescence/electron microscopy relative to control
State just the number; it will be interpreted in %.

Could you share which inhibition value was measured for `O=C(O)[C@H]1CCCN1C(=O)COc1cccc2c(OCC(=O)N3CCC[C@@H]3C(=O)O)cccc12` ?
80

Queued: `O=C(O)[C@H]1CCCN1C(=O)CCCCC(=O)N1CCC[C@@H]1C(=O)O`
98

And then `O=C(O)[C@H]1CCCN1C(=O)Cc1ccc(CC(=O)N2CCC[C@@H]2C(=O)O)c2ccccc12` , what is it?
98

And `O=C(O)[C@H]1CCCN1C(=O)[C@H]1CC[C@@H](C(=O)N2CCC[C@@H]2C(=O)O)CC1` ?
92

Also, `O=C(O)[C@H]1CCCN1C(=O)Cc1ccc(CC(=O)N2CCC[C@@H]2C(=O)O)cc1` please.
89

###

# Target Under Test: Serum amyloid P-component (Homo sapiens)
# Assay: Inhibition of calcium dependent [125I]serum amyloid P-component (unknown origin) binding to immobilized Neisseria meningitidis at 20 uM incubated for 2 hrs by fluorescence/electron microscopy relative to control
Measured Parameter: inhibition (%)
Just the number please, in %, no unit attached.

What does the data say about its inhibition? Entry: `NCCOP(=O)(O)O`
32

// same read-out, input: `COc1cccc(OCC(=O)N2CCC[C@@H]2C(=O)O)c1OCC(=O)N1CCC[C@@H]1C(=O)O`
92

Similarly, `O=C(O)[C@H]1CCCN1C(=O)Cc1cc(O)c(CC(=O)N2CCC[C@@H]2C(=O)O)cc1O` ?
95

What about this compound? `O=C(O)[C@H]1CCCN1C(=O)COc1ccc(OCC(=O)N2CCC[C@@H]2C(=O)O)cc1`
74

Now try `Cc1c(OCC(=O)N2CCC[C@@H]2C(=O)O)cccc1OCC(=O)N1CCC[C@@H]1C(=O)O` .
93

###

# Target Under Test: Serum amyloid P-component (Homo sapiens)
# Assay: Inhibition of calcium dependent [125I]serum amyloid P-component (unknown origin) binding to immobilized Neisseria meningitidis at 2 uM incubated for 2 hrs by fluorescence/electron microscopy relative to control
Rule: inhibition under 60% gives not satisfied, otherwise satisfied.

Does the reported inhibition for `NCCOP(=O)(O)O` fall at or above the 60% mark?
not satisfied

Same read-out for `O=C(O)[C@H]1CCCN1C(=O)Cc1cccc(CC(=O)N2CCC[C@@H]2C(=O)O)c1` ?
satisfied

Now this one: `O=C(O)[C@H]1CCCN1C(=O)[C@H]1CC[C@@H](C(=O)N2CCC[C@@H]2C(=O)O)CC1`
satisfied

Could you do the same for `C[N+](C)(C)CCOP(=O)([O-])O` , please?
not satisfied

Now try `O=C(O)[C@H]1CCCN1C(=O)Cc1ccc(CC(=O)N2CCC[C@@H]2C(=O)O)c2ccccc12` .
satisfied

Record: `COc1cccc(OCC(=O)N2CCC[C@@H]2C(=O)O)c1OCC(=O)N1CCC[C@@H]1C(=O)O`
satisfied

Repeat with `O=C(O)[C@H]1CCCN1C(=O)COc1ccc(OCC(=O)N2CCC[C@@H]2C(=O)O)cc1`
satisfied

Also `C[C@H](CS)C(=O)N1CCC[C@@H]1C(=O)O` , if possible.
not satisfied

Taken from ChEMBL document CHEMBL3882241.
